- target-under-test: T1, mouse CTGF (antigen of the Biacore assay) (mouse, UniProt P29268 26-348)
- T1 construct: also called mouse CTGF protein
- T1 sequence (looked up): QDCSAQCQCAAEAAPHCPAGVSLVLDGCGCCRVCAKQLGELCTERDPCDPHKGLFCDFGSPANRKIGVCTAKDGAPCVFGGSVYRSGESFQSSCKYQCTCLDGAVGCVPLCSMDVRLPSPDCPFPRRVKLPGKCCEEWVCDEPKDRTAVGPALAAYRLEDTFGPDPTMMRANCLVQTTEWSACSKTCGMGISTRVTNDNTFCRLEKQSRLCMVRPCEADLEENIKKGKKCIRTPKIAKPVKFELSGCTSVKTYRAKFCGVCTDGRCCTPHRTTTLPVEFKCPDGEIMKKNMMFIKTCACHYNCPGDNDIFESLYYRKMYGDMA
- test-protocol: Biacore, antibody captured on Protein A, mouse CTGF in flow, 1:1 fit
property-name: pKd
One number for each entry, as −log10 of the molar value.

{"columns": ["binder", "property-name", "recorded-value"],
 "data": [
  ["Hu147-31wk (antibody, human IgG1, kappa, V domains shown) VH: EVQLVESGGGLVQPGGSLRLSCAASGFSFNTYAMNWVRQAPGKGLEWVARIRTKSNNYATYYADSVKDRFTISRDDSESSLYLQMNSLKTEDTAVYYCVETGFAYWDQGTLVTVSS VL: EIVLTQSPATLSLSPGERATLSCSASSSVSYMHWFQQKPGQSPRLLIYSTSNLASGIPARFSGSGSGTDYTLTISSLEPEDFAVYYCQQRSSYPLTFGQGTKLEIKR", "pKd", 8.55],
  ["Hu95-51yk (antibody, human IgG1, kappa, V domains shown) VH: EVQLVQSGAEVKKPGASVKVSCRASGFTFTNYAIHWVKQAPGQRLEWMGLVYPYTGGTAYNQKFKDKVTLTFDTSASTAYMELSSLRSEDTAVYYCARWGMIPGTNSYFDVWGQGTTVTVSS VL: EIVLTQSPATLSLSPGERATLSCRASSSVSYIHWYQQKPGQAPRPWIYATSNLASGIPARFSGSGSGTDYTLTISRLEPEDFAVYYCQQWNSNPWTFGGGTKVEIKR", "pKd", 10.69]
]}

Proceeding to the next binder to report its pKd.
Input: Entry Hu95-42wk (antibody, human IgG1, kappa, V domains shown) VH: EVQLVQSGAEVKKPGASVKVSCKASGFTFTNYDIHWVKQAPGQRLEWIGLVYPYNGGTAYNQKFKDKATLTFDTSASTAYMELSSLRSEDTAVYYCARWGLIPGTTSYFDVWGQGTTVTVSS VL: EIVLTQSPATLSLSPGERATLSCRASSSVSYIHWYQQKPGQSPRPWIYATSNLASGVPARFSGSGSGTSYTLTISRLEPEDFAVYYCQQWNSNPWTFGGGTKVEIKR needs its pKd filled in; supply it.
Output: 8.62

Cited source: patent US20220324953A1
